# tgt: Bromodomain-containing protein 4 (Homo sapiens)
# test.name: Binding affinity to recombinant human N-terminal His-tagged BRD4 BD1 (44 to 170 residues) expressed in Escherichia coli using H4K5AcK8Ac as substrate measured after 30 mins by AlphaScreen assay
reported.metric: pIC50
pIC50 field: float, defined as -log10 of concentration (mol/L).

IN: What measured pIC50 goes with "COC(=O)CCc1cc2c3c(ccc(NS(=O)(=O)c4ccccc4OC)c3c1)N(C)C2=O" ?
OUT: 6.44

----------
# Test system: NCI-H1975
# test.name: Antiproliferative activity against human NCI-H1975 cells assessed as reduction in cell viability
# Assay type: functional, cell-based
reported.metric: IC50 (nM)
Give the value in nM but do not write nM after it.

IN: What measured IC50 goes with COc1ccccc1S(=O)(=O)Nc1ccc2c3c(cc(CCC(=O)NCCCCNc4cccc5c4C(=O)N(C4CCC(=O)NC4=O)C5=O)cc13)C(=O)N2C (stereo unspecified) ?
OUT: 459
